# System: NCI-H460 lung
# protocol: NCI tumour cell line growth inhibition, 48 h
observationType: log10(TGI) (log10 of the value in µM)
Log10 applied to TGI; unit prior to transform: µM.

INSERT INTO results (linenotation, endpointresult) VALUES
  ('CN(C)CCCn1c(Cc2ccccc2)nc2cc(C(F)(F)F)ccc21', 1.64),
  ('CCCCN(CCCC)C(=Nc1ccccc1)N(CCCC)CCCC', 1.28),
  ('COC12C=C/C(=C(/C(=O)OCc3ccncn3)C(=O)CCCCCCCCC3(OC)C=C/C(=C(/C(=O)OCc4ccncn4)C(=O)CCCCCCCC1)O3)O2', 0.01);

Give the measured log10(TGI) for `C/C(O)=C/c1nc2ccccc2nc1/C=C(/C)O`
1.54

Recall and state the measured log10(TGI) for `CC(C)OC(=O)c1ccc(NCC2=CC(=O)C=CC2=O)cc1Cl` .
1.61
